Tested on: Danio rerio embryo
Details: exposure time: 4 dpf
List of EC50 Heart rate values.
Field: numeric (µM). Do not append units.

Worked cases, answers included:
>  <COMPOUND>
CCO/N=C(\CC)C1=C(O)CC(c2c(C)cc(C)cc2C)CC1=O (stereo not drawn) [Tralkoxydim]

>  <TARGET>
Danio rerio embryo

>  <EC50 Heart rate (µM)>
56.3

$$$$
>  <COMPOUND>
CC1(C)OC(=O)C(OCC2CC2)=C1c1ccc(S(C)(=O)=O)cc1 [Firocoxib]

>  <TARGET>
Danio rerio embryo

>  <EC50 Heart rate (µM)>
56.2

$$$$
>  <COMPOUND>
CCCNCC(O)COc1ccccc1C(=O)CCc1ccccc1 (stereo not drawn) [Propafenone]

>  <TARGET>
Danio rerio embryo

>  <EC50 Heart rate (µM)>
16.8

$$$$
>  <COMPOUND>
CCOC(=O)N1CCC(=C2c3ccc(Cl)cc3CCc3cccnc32)CC1 [Loratadine]

>  <TARGET>
Danio rerio embryo

>  <EC50 Heart rate (µM)>
7.03

$$$$
>  <COMPOUND>
CC(C)(C)C(O)/C(=C/c1ccc(Cl)cc1Cl)n1cncn1 (stereo not drawn) [Diniconazole]

>  <TARGET>
Danio rerio embryo

>  <EC50 Heart rate (µM)>
11.3

$$$$
>  <COMPOUND>
CC(C)(C)C(O)C(Oc1ccc(Cl)cc1)n1cncn1 (stereo not drawn) [Triadimenol]

>  <TARGET>
Danio rerio embryo

>  <EC50 Heart rate (µM)>
194

$$$$
>  <COMPOUND>
CSc1nc2cc(Cl)c(Oc3cccc(Cl)c3Cl)cc2[nH]1 [Triclabendazole]

>  <TARGET>
Danio rerio embryo

>  <EC50 Heart rate (µM)>
1.11

$$$$

As a next step, examine the compound that follows.
In: Give the measured EC50 Heart rate of CC1(C)O[C@@H]2[C@@H](CO[C@@]3(COS(N)(=O)=O)OC(C)(C)O[C@@H]23)O1 [Topiramate] .
Out: 87.8

----------
Tested on: Danio rerio embryo
Assay: EC20 Any effect; higher = less potent
Settings: exposure time: 4 dpf
PROPERTY_LABEL: EC20 Any effect (µM)
# output: bare number, implied unit µM

>  <COMPOUND>
COc1cccc2c1C(=O)c1c(O)c3c(c(O)c1C2=O)C[C@@](O)(C(C)=O)C[C@@H]3O[C@H]1C[C@H](N)[C@H](O)[C@H](C)O1 [Daunorubicin]

>  <OUTPUT_UNIT>
µM

>  <EC20 Any effect>
87.6

$$$$
>  <COMPOUND>
C[C@@H]1C[C@H]2[C@@H]3CCC4=CC(=O)C=C[C@]4(C)[C@@]3(F)[C@@H](O)C[C@]2(C)[C@@]1(O)C(=O)CO [Dexamethasone]

>  <OUTPUT_UNIT>
µM

>  <EC20 Any effect>
7.45

$$$$

In: # EC20 Any effect lookup, item O=C(O)CCc1nc(-c2ccccc2)c(-c2ccccc2)o1 [Oxaprozin]
Out: 15.3

In: Which measured EC20 Any effect value corresponds to CC(C)(C)C(O)/C(=C/c1ccc(Cl)cc1Cl)n1cncn1 (centres undefined) [Diniconazole] ?
Out: 1.89

----------
Tested on: Danio rerio embryo
Settings: exposure time: 4 dpf
Listing: EC50 LMR dark of selected molecules
Give just the number in µM; leave the unit off.

Check out these entries, answers already filled in.
>  <MOLECULE>
O=C(O)CCc1nc(-c2ccccc2)c(-c2ccccc2)o1

>  <PROPERTY_LABEL>
EC50 LMR dark

>  <EXPERIMENTAL_VALUE>
16.2

$$$$
>  <MOLECULE>
CC(=O)Nc1ccc(O)cc1

>  <PROPERTY_LABEL>
EC50 LMR dark

>  <EXPERIMENTAL_VALUE>
897

$$$$
>  <MOLECULE>
CCCCOC(=O)[C@@H](C)Oc1ccc(Oc2ccc(C(F)(F)F)cn2)cc1

>  <PROPERTY_LABEL>
EC50 LMR dark

>  <EXPERIMENTAL_VALUE>
2.38

$$$$
>  <MOLECULE>
CNCCC=C1c2ccccc2CCc2ccccc21

>  <PROPERTY_LABEL>
EC50 LMR dark

>  <EXPERIMENTAL_VALUE>
10.3

$$$$
>  <MOLECULE>
CCOC(=O)N1CCC(=C2c3ccc(Cl)cc3CCc3cccnc32)CC1

>  <PROPERTY_LABEL>
EC50 LMR dark

>  <EXPERIMENTAL_VALUE>
0.399

$$$$
>  <MOLECULE>
CN(Cc1cnc2nc(N)nc(N)c2n1)c1ccc(C(=O)N[C@@H](CCC(=O)O)C(=O)O)cc1 [Methotrexate]

>  <PROPERTY_LABEL>
EC50 LMR dark

>  <EXPERIMENTAL_VALUE>
243

$$$$
>  <MOLECULE>
O=C(O)Cc1ccccc1Nc1c(Cl)cccc1Cl

>  <PROPERTY_LABEL>
EC50 LMR dark

>  <EXPERIMENTAL_VALUE>
8.07

$$$$
>  <MOLECULE>
CC1(C)OC(=O)C(OCC2CC2)=C1c1ccc(S(C)(=O)=O)cc1

>  <PROPERTY_LABEL>
EC50 LMR dark

>  <EXPERIMENTAL_VALUE>
53.7

$$$$

In: Any idea what EC50 LMR dark was measured for CCO/N=C(\CC)C1=C(O)CC(c2c(C)cc(C)cc2C)CC1=O (centres undefined) ?
Out: 85.8

In: Recorded EC50 LMR dark for CC(C)(C)C(O)/C(=C/c1ccc(Cl)cc1Cl)n1cncn1 (centres undefined) , please?
Out: 4.3

In: I have this molecule here, CC1(C)O[C@@H]2[C@@H](CO[C@@]3(COS(N)(=O)=O)OC(C)(C)O[C@@H]23)O1 [Topiramate] , and I need its recorded EC50 LMR dark.
Out: 461

----------
Test system: Danio rerio embryo
Assay: EC10 STC bell shape; higher = less potent
Conditions: exposure time: 25 h
PROPERTY_LABEL: EC10 STC bell shape (µM)
Number only, in µM; omit the unit.

>  <COMPOUND>
CC(=O)Nc1ccc(O)cc1

>  <PROPERTY_LABEL>
EC10 STC bell shape

>  <EXPERIMENTAL_VALUE>
5590

$$$$
>  <COMPOUND>
O=C(O)Cc1ccccc1Nc1c(Cl)cccc1Cl

>  <PROPERTY_LABEL>
EC10 STC bell shape

>  <EXPERIMENTAL_VALUE>
32.4

$$$$
>  <COMPOUND>
CCCCC(O)(Cn1cncn1)c1ccc(Cl)cc1Cl (centres undefined)

>  <PROPERTY_LABEL>
EC10 STC bell shape

>  <EXPERIMENTAL_VALUE>
17.5

$$$$

In: # value lookup — system Danio rerio embryo, readout EC10 STC bell shape, item Cc1ccc(-c2cc(C(F)(F)F)nn2-c2ccc(S(N)(=O)=O)cc2)cc1
Out: 20.4

----------
System: Danio rerio embryo
Experiment: EC20 Any effect; higher = less potent
Settings: exposure time: 2 dpf
Hi, to clarify the labels: Fulfilled covers EC20 Any effect from 5 µM upward, Not fulfilled covers anything below 5 µM.

In: Please tell me: is the molecule CCCCOC(=O)[C@@H](C)Oc1ccc(Oc2ccc(C(F)(F)F)cn2)cc1 [fluazifop-p-butyl] at or over 5 µM in terms of EC20 Any effect?
Out: Not fulfilled

In: Threshold query (EC20 Any effect >= 5 µM) on COC(=O)Nc1nc2ccccc2[nH]1 [Carbendazim]
Out: Not fulfilled

In: Dear colleague, could you confirm whether CSc1nc2cc(Cl)c(Oc3cccc(Cl)c3Cl)cc2[nH]1 [Triclabendazole] has EC20 Any effect at or above 5 µM?
Out: Not fulfilled

In: Quick check: does O=C(O)Cc1ccccc1Nc1c(Cl)cccc1Cl [Diclofenac] have EC20 Any effect greater than or equal to 5 µM?
Out: Fulfilled

In: Textbook exercise: given the entry CC1(C)O[C@@H]2[C@@H](CO[C@@]3(COS(N)(=O)=O)OC(C)(C)O[C@@H]23)O1 [Topiramate] , state whether its EC20 Any effect is greater than or equal to 5 µM.
Out: Fulfilled

In: Please tell me: is the molecule CC1=C(/C=C/C(C)=C/C=C/C(C)=C/C(=O)O)C(C)(C)CCC1 [all-trans retinoic acid] at or over 5 µM in terms of EC20 Any effect?
Out: Not fulfilled

In: Could you tell me if the measured EC20 Any effect of CN(Cc1cnc2nc(N)nc(N)c2n1)c1ccc(C(=O)N[C@@H](CCC(=O)O)C(=O)O)cc1 [Methotrexate] reaches 5 µM or more?
Out: Fulfilled

In: Item CCC(=O)OCC(=O)[C@@]1(OC(=O)CC)[C@@H](C)C[C@H]2[C@@H]3CCC4=CC(=O)C=C[C@]4(C)[C@@]3(F)[C@@H](O)C[C@@]21C [betamethasone dipropionate] with EC20 Any effect of 5 µM or above?
Out: Not fulfilled

In: Hello, I need to know if CC1(C)OC(=O)C(OCC2CC2)=C1c1ccc(S(C)(=O)=O)cc1 [Firocoxib] has measured EC20 Any effect not below 5 µM. Thanks!
Out: Fulfilled

In: Reported EC20 Any effect at or above 5 µM? CCCCC(O)(Cn1cncn1)c1ccc(Cl)cc1Cl (stereo unspecified) [Hexaconazole]
Out: Fulfilled

In: Entry CC(C)(C)C(O)/C(=C/c1ccc(Cl)cc1Cl)n1cncn1 (stereo unspecified) [Diniconazole] : is its EC20 Any effect no less than 5 µM?
Out: Not fulfilled

In: Tell me whether EC20 Any effect is at least 5 µM here: Cc1ccc(-c2cc(C(F)(F)F)nn2-c2ccc(S(N)(=O)=O)cc2)cc1 [Celecoxib]
Out: Fulfilled

In: Is EC20 Any effect at least 5 µM? Consider CNCCC=C1c2ccccc2CCc2ccccc21 [Nortriptyline]
Out: Fulfilled

In: Check if EC20 Any effect >= 5 µM (inclusive). Item: O=C(O)CCc1nc(-c2ccccc2)c(-c2ccccc2)o1 [Oxaprozin]
Out: Fulfilled

In: Item COc1cccc2c1C(=O)c1c(O)c3c(c(O)c1C2=O)C[C@@](O)(C(C)=O)C[C@@H]3O[C@H]1C[C@H](N)[C@H](O)[C@H](C)O1 [Daunorubicin] with EC20 Any effect of 5 µM or above?
Out: Fulfilled
